// provenance: the supplement of paper PMC12494721

System: Klebsiella aerogenes DSM 30053
method.description: growth (OD595) fold change vs plate DMSO controls (fold change (ratio)); higher = more growth
details: incubation time: 27 h, anaerobic, 37 °C
Where a name gives a salt, the structure may show the parent alone.
Each entry below carries its recorded growth.
measurement.label: growth

>>> readout_value("Fc1ccc(C(c2ccc(F)cc2)N2CCN(C/C=C/c3ccccc3)CC2)cc1 [Flunarizine dihydrochloride] (20 µM)")
1.1
>>> readout_value("Cc1cc(C)nc(NS(=O)(=O)c2ccc(N)cc2)n1 [Sulfamethazine sodium salt] (20 µM)")
0.984
>>> readout_value("Cc1nc(=O)c2cc(CN(C)c3ccc(C(=O)N[C@@H](CCC(=O)O)C(=O)O)s3)ccc2[nH]1 [Raltitrexed] (20 µM)")
1.02
>>> readout_value("CC(C)NC[C@H](O)COc1ccc(CC(N)=O)cc1 [(S,-) Atenolol] (20 µM)")
1.01

* * *

Tested on: Clostridium sporogenes DSM 1664
method.description: growth (OD595) fold change vs plate DMSO controls (fold change (ratio)); higher = more growth
details: incubation time: 27 h, anaerobic, 37 °C
Where a name gives a salt, the structure may show the parent alone.
Label 1 when growth is at or above 1; otherwise label -1.

>>> class_name("CC(C)(CO)[C@@H](O)C(=O)NCCCC(=O)O [Hopantenate calcium] (20 µM)")
1
>>> class_name("C[C@@H](O)[C@H]1C(=O)N2C(C(=O)O)=C(S[C@@H]3CN[C@H](C(=O)N(C)C)C3)[C@H](C)[C@H]12 [Meropenem] (20 µM)")
-1
>>> class_name("COc1ccccc1OCC(O)COC(N)=O (stereo not drawn) [Methocarbamol] (20 µM)")
1
>>> class_name("NS(=O)(=O)c1cc2c(cc1Cl)N=CNS2(=O)=O [Chlorothiazide] (20 µM)")
1
>>> class_name("NCc1ccc(S(N)(=O)=O)cc1 [Mafenide hydrochloride] (20 µM)")
1
>>> class_name("CN(C)CCc1c[nH]c2ccc(C[C@H]3COC(=O)N3)cc12 [Zolmitriptan] (20 µM)")
1
>>> class_name("CC(=O)OCC(=O)[C@@]1(O)CC[C@H]2[C@@H]3CCC4=CC(=O)CC[C@]4(C)[C@@]3(F)[C@@H](O)C[C@@]21C [Fludrocortisone acetate] (20 µM)")
-1
>>> class_name("CN(C)C(=O)C(CCN1CCC(O)(c2ccc(Cl)cc2)CC1)(c1ccccc1)c1ccccc1 [Loperamide hydrochloride] (20 µM)")
1
>>> class_name("NS(=O)(=O)c1cc2c(cc1Cl)NC(CC1CCCC1)NS2(=O)=O (stereo not drawn) [Cyclopenthiazide] (20 µM)")
1
>>> class_name("CCN(Cc1ccncc1)C(=O)C(CO)c1ccccc1 (stereo not drawn) [Tropicamide] (20 µM)")
-1
>>> class_name("N=C(N)Nc1ccc(C(=O)Oc2ccc3cc(C(=N)N)ccc3c2)cc1 [Nafamostat Mesylate] (20 µM)")
1
>>> class_name("Nc1ncnc2c1ncn2C1OC(COP(=O)(O)O)C(O)C1O (stereo not drawn) [Adenosine 5'-monophosphate monohydrate] (20 µM)")
1
>>> class_name("O=C(CO)[C@@H](O)[C@@H](O)[C@H](O)CO [D-Tagatose] (50 µM)")
-1
>>> class_name("CCn1cc(C(=O)O)c(=O)c2cc(F)c(N3CCNC(C)C3)c(F)c21 (stereo not drawn) [Lomefloxacin hydrochloride] (20 µM)")
-1
>>> class_name("O=[N+]([O-])c1ccc(O)c2ncccc12 [Nitroxoline] (20 µM)")
1
>>> class_name("C[C@]12CC[C@@H]3c4ccc(O)cc4CC[C@H]3[C@@H]1CC[C@@H]2O [Estradiol-17 beta] (20 µM)")
1
>>> class_name("CN1C2CCCC1CC(NC(=O)c1nn(C)c3ccccc13)C2 (stereo not drawn) [Granisetron] (20 µM)")
1
>>> class_name("CC(C)(C)NC(=O)[C@H]1CC[C@H]2[C@@H]3CC[C@H]4NC(=O)C=C[C@]4(C)[C@H]3CC[C@]12C [Finasteride] (20 µM)")
1
>>> class_name("c1ccc2c(CC3=NCCN3)cccc2c1 [Naphazoline hydrochloride] (20 µM)")
-1
>>> class_name("CC1CC(OC(=O)c2ccccc2O)CC(C)(C)C1 (stereo not drawn) [Homosalate] (20 µM)")
1
>>> class_name("CC1=C(CC(=O)O)c2cc(F)ccc2/C1=C\\c1ccc([S+](C)[O-])cc1 (stereo not drawn) [Sulindac] (20 µM)")
1
>>> class_name("NC(N)=Nc1nc(CSCC/C(N)=N/S(N)(=O)=O)cs1 [Famotidine] (20 µM)")
-1
>>> class_name("CC(=O)Oc1cc(C(C)C)c(OCCN(C)C)cc1C [Moxisylyte hydrochoride] (20 µM)")
1
>>> class_name("C(=C\\c1ccccc1)/CN1CCN(C(c2ccccc2)c2ccccc2)CC1 [Cinnarizine] (20 µM)")
1
>>> class_name("CNC(=C[N+](=O)[O-])NCCSCc1ccc(CN(C)C)o1 [Ranitidine hydrochloride] (20 µM)")
1
